Value source: patent US20260078103A1

System: phosphorylation of AKT (pAKT) in T47D cells expressing mutant PI3Ka (H1047R)
Test: In vitro cell pAKT (Ser473) HTRF, T47D cells
Format: cell-based
Conditions: Homo sapiens, T47D, 6 h, cellular pAKT, T47D cells, mutant PI3Ka (H1047R), 6 hours; read-out: Avg T-47D IC50
The entries below come with measured IC50 values attached.

Compound: Cc1cc([C@@H](C)Nc2ccccc2C(=O)O)c2cc(-c3cnc(C(F)F)c(F)c3)n(C)c(=O)c2c1
IC50: 1 to 500 nM
--
Compound: Cc1cc([C@@H](C)Nc2ccccc2C(=O)O)c2cc(-c3cnc(C(C)(C)F)nc3)n(C)c(=O)c2c1
IC50: 1 to 500 nM
--
Compound: Cc1cc([C@@H](C)Nc2ccccc2C(=O)O)c2cc(-c3cnc(C(C)C)nc3)n(C)c(=O)c2c1
IC50: 1 to 500 nM
--
Compound: C[C@@H](Nc1ccccc1C(=O)O)c1cc(F)cc2c(=O)n(C)c(-c3cnc(-c4cc(=O)n(C)cc4F)c(F)c3)cc12
IC50: 500 to 2000 nM
--
Compound: COc1ncc(-c2c(F)c3c([C@@H](C)Nc4ccccc4C(=O)O)cc(F)cc3c(=O)n2C)s1
IC50: 1 to 500 nM
--
Compound: C[C@@H](Nc1ccccc1C(=O)O)c1cc(F)cc2c(=O)n(C)c(C3C[C@@H]3CF)c(F)c12 (single isomer, unassigned)
IC50: 1 to 500 nM
--
Compound: Cc1cc([C@@H](C)Nc2cccc(F)c2C(=O)O)c2cc(N3CCN(c4ccc(C)nc4)CC3)n(C)c(=O)c2c1
IC50: 1 to 500 nM
--
Compound: Cc1cc([C@@H](C)Nc2ccccc2C(=O)O)c2cc(C3CC3)n(C)c(=O)c2c1
IC50: 1 to 500 nM
--
Compound: Cc1cc([C@@H](C)Nc2ccccc2C(=O)O)c2cc(N3CCn4c(C)nnc4C3)n(C)c(=O)c2c1
IC50: > 15000 nM
--
Compound: Cc1cc([C@@H](C)Nc2ccccc2C(=O)O)c2cc(-c3cnc(C(F)(F)F)nc3)n(C)c(=O)c2c1
IC50: 1 to 500 nM
--
Compound: C[C@@H](Nc1cccc(F)c1C(=O)O)c1cc(F)cc2c(=O)n(C)c(N3CC(F)(F)C3)cc12
IC50: 500 to 2000 nM
--
Compound: Cc1cc(C(C)Nc2ccccc2C(=O)O)c2cc(N3C4CCCC3CC4)n(C)c(=O)c2c1 (centres unmarked)
IC50: 1 to 500 nM
--
Compound: Cc1cc([C@@H](C)Nc2ccccc2C(=O)O)c2cc(-c3cnc(C(C)C)cn3)n(C)c(=O)c2c1
IC50: 1 to 500 nM
--
Compound: Cc1cc(C(C)Nc2ccccc2C(=O)O)c2cc(N3CCN4CC(F)(F)C[C@@H]4C3)n(C)c(=O)c2c1 (some centres unmarked)
IC50: 1 to 500 nM
--
Compound: Cc1cc([C@@H](C)Nc2cccc(F)c2C(=O)O)c2cc(N3CCN(c4ccc(C)nc4C)CC3)n(C)c(=O)c2c1
IC50: 1 to 500 nM
--
Compound: C[C@@H](Nc1ccccc1C(=O)O)c1cc(F)cc2c(=O)n(C)c(-c3ccc(OC4CC4)nc3)cc12
IC50: 1 to 500 nM
--
Compound: C[C@@H](Nc1ccccc1C(=O)O)c1cc(F)cc2c(=O)n(C)c(I)cc12
IC50: 500 to 2000 nM
--
Compound: COCC1CN(c2cc3c([C@@H](C)Nc4ccccc4C(=O)O)cc(C)cc3c(=O)n2C)C1
IC50: 1 to 500 nM
--
Compound: Cc1cc(C(C)Nc2ccccc2C(=O)O)c2cc(N3CC4(CC(C(F)(F)F)C4)C3)n(C)c(=O)c2c1 (centres unmarked)
IC50: 1 to 500 nM
--
Compound: Cc1cc([C@@H](C)Nc2ccccc2C(=O)O)c2cc(N3CCN(CC4OCCO4)CC3)n(C)c(=O)c2c1
IC50: 1 to 500 nM
--
Compound: Cc1cc([C@@H](C)Nc2ccccc2C(=O)O)c2cc(N3CCN(c4ccn(C)n4)CC3)n(C)c(=O)c2c1
IC50: 1 to 500 nM
--
Compound: Cc1cc(C(C)Nc2ccccc2C(=O)O)c2cc(N3Cc4cncnc4C3)n(C)c(=O)c2c1 (centres unmarked)
IC50: 500 to 2000 nM
--
Compound: CNc1ccc(N2CCN(c3cc4c([C@@H](C)Nc5ccccc5C(=O)O)cc(C)cc4c(=O)n3C)CC2)cn1
IC50: 1 to 500 nM
--
Compound: Cc1cc([C@@H](C)Nc2ccccc2C(=O)O)c2cc(N3CC(F)(c4cccnc4)C3)n(C)c(=O)c2c1
IC50: 1 to 500 nM
--
Compound: Cc1cc([C@@H](C)Nc2ccccc2C(=O)O)c2cc(C3C[C@H]3C3CC3)n(C)c(=O)c2c1 (some centres unmarked) [Example 303]
IC50: 1 to 500 nM
--
Compound: Cc1cnc(-c2ncc(-c3cc4c([C@@H](C)Nc5ccccc5C(=O)O)cc(F)cc4c(=O)n3C)cc2F)cn1
IC50: 1 to 500 nM
--
Compound: C[C@@H](Nc1cccc(F)c1C(=O)O)c1cc(F)cc2c(=O)n(C)c(C3CC3)cc12
IC50: 1 to 500 nM
--
Compound: C[C@@H](Nc1ccccc1C(=O)O)c1cc(F)cc2c(=O)n(C)c(C3CC3)cc12
IC50: 1 to 500 nM
--
Compound: Cc1cc(C(C)Nc2ccccc2C(=O)O)c2cc(N3Cc4cc(F)cc(F)c4C3)n(C)c(=O)c2c1 (centres unmarked)
IC50: 1 to 500 nM
